target.desc: T1, HpRap1B (Hansenula polymorpha DL-1, UniProt W1QDN2 1-576)
T1 sequence: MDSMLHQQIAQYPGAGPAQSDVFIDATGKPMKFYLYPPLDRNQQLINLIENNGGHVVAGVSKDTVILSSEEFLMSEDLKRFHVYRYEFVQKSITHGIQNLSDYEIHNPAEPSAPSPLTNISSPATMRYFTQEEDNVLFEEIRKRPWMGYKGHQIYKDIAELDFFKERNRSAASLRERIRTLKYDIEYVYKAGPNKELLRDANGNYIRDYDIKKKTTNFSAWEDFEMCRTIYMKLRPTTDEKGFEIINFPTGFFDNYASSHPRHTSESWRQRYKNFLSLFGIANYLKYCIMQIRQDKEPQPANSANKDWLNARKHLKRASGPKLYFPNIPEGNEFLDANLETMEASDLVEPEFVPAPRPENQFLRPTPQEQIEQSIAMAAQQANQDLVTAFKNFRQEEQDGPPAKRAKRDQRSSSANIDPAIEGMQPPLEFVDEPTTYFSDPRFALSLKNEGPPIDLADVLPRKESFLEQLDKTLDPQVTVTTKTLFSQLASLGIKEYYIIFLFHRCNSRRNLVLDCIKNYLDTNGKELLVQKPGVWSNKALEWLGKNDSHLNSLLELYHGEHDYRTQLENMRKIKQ
assay.summary: SPR; kinetic fit; equilibrium Kd 11±1; SPR: 10 mM HEPES-NaOH pH 7.5, 150 mM NaCl, 0.5 mM DTT, 0.05% Tween 20, 1 mg/ml BSA, 0.02 mg/ml salmon sperm DNA; competition 2 nM protein with 20 or 200 nM competitor. EMSA: 20 mM HEPES-NaOH pH 7.5, 50 mM NaCl, 0.2 mg/ml BSA, 5% glycerol, 0.1 mg/ml salmon sperm DNA, room temperature
condition.set: protein: recombinant; 3' overhang 20 nt on strand 2
reported.endpoint: Kd (nM)
Express the result in nM but write the number alone.

Tell me the measured Kd of HANPO2 (SPR) (dsDNA) DNA 1: GGGTGGCGGGGTGGCG DNA 2: CGCCACCCCGCCACCCCCTCTACGTCCTCCTGCTCC , please. 12
